System tested: Ecm22 (UniProt Q05958)
Sequence: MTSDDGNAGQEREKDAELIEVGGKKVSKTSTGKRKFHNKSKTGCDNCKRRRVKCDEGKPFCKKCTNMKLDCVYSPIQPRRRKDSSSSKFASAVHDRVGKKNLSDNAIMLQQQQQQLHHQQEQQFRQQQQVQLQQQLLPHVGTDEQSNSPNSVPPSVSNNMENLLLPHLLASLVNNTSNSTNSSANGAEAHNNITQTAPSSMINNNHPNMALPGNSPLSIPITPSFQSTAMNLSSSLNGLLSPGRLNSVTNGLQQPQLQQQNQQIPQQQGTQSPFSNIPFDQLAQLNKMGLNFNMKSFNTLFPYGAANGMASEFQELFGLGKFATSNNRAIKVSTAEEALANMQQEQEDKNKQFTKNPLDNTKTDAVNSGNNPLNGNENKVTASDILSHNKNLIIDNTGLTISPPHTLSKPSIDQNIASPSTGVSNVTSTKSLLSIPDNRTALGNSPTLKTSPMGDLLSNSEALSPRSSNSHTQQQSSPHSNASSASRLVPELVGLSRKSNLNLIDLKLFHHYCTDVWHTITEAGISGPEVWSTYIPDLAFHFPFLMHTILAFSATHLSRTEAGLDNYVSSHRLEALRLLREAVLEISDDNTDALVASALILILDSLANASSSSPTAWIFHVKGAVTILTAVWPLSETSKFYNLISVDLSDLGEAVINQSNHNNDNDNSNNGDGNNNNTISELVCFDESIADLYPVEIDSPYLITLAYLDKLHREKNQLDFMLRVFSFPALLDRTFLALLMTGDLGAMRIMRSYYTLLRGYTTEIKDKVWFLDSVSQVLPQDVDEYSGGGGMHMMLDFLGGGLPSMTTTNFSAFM
Test details: PBM E-score (8-mer binding enrichment) (E-score (-0.5 to 0.5)); higher = stronger / more preferred TF binding
Experimental parameters: protein concentration: 200 nM; construct: GST-full length
Over roughly 33,000 sequences, “E-score (-0.5 to 0.5)” has its median near -0.041; the highest 2% begin near 0.37. The entries come from a sample that favours the highest values as a whole.
Assign condition met to entries whose PBM E-score meets or exceeds 0.2; assign condition not met to the rest.

CTACAGTC ... condition not met

Ask | Evaluate AATACGAA : PBM E-score at minimum 0.2?
Reply | condition met

Ask | Evaluate AACATTCT : PBM E-score at minimum 0.2?
Reply | condition not met

Ask | Evaluate GTCCTGGA : PBM E-score at minimum 0.2?
Reply | condition not met

Ask | Evaluate GTATCGAA : PBM E-score at minimum 0.2?
Reply | condition not met

Ask | Evaluate AGATGAAG : PBM E-score at minimum 0.2?
Reply | condition not met

Ask | Evaluate ACGGCACT : PBM E-score at minimum 0.2?
Reply | condition not met

Ask | Evaluate ACGATCAG : PBM E-score at minimum 0.2?
Reply | condition met

Ask | Evaluate CCCCCGAG : PBM E-score at minimum 0.2?
Reply | condition not met

Ask | Evaluate TAAACAAA : PBM E-score at minimum 0.2?
Reply | condition not met

Ask | Evaluate CCAGGGCA : PBM E-score at minimum 0.2?
Reply | condition not met

Ask | Evaluate CCGTACCA : PBM E-score at minimum 0.2?
Reply | condition met

Ask | Evaluate CAGGGTGA : PBM E-score at minimum 0.2?
Reply | condition not met
